# assay-overview: soluble on expression in E. coli; label from the status in PepcDB or PDB records

sequence-entry	soluble on expression in E. coli
MSLEAIHRSTRIEFSKSSLAYNVQYTKQVSGAKTLWLAVKSNAYGHGLLQVSKIARECGVDGLAVSVLDEGIAIRQAGIDDFILILGPIDVKYAPIASKYHFLTTVSSLDWLKSADKILGKEKLSVNLAVDTGMNRIGVRSKKDLKDEIEFLQEHSDHFSYDGIFTHFASSDNPDDHYFQRQKNRWYELIDGLIMPRYVHVMNSGAAMYHSKELPGCNSIARVGTVVYGVEPSEGVLGPIDKLKPVFELKSALTFVKKIPAGEGISYGSKFVTSRDTWIGTLPIGYGDGWLAEYQDFQLLIDGQKCRQVGQIAMDQMMVALPHEYPIGTEVTLIGKSGKYENTLYDLHKHSGVPPWKITVAFSDRLKRMVVDEGHHHHHH	soluble
GHHHHHHAIAENLYFQSHGHGGYDSDFSDDEHCGESSKRKKRTVEDDLLLQKPFQKEKHGKVAHKQVAAELLDREEARNRRFHLIAMDAYQRHRKFVNDYILYYGGKKEDFKRLGENDKTDLDVIRENHRFLWNEEDEMDMTWEKRLAKKYYDKLFKEYCIADLSKYKENKFGFRWRVEKEVISGKGQFFCGNKYCDKKEGLKSWEVNFGYIEHGEKRNALVKLRLCQECSIKLNFHHRRKEIKSKKRKDKTKKDCEESSHKKSRLSSAEEASKKKDKGHSSSKKSEDSLLRNSDEEESASESELWKGPLPETDEKSQEEEFDEYFQDLFL	soluble

---

# assay-overview: soluble on expression in E. coli; label from the status in PepcDB or PDB records

sequence-entry	soluble on expression in E. coli
MGKEITENIIDVEFKCNHFKMNGYIGNNNIYRSNKNLQHIYINKRFVKSKIIIDAITESYKSIIPIGKHAVCFLNIEVDPSCIDVNIHPNKLEIKFEKEQEVYIELRDFLKVKLIHSNLIGLEHHHHHH	not soluble
MNKVVLLCRPGFEKECAAEITDKAGQREIFGFARVKENAGYVIYECYQPDDGDKLIRELPFSSLIFARQWFVVGELLQHLPPEDRITPIVGMLQGVVEKGGELRVEVADTNESKELLKFCRKFTVPLRAALRDAGVLANYETPKRPVVHVFFIAPGCCYTGYSYSNNNSPFYMGIPRLKFPAEAPSRSTLKLEEAFHVFIPADEWDERLANGMWAVDLGACPGGWTYQLVKRNMWVYSVDNGPMAQSLMDTGQVTWLREDGFKFRPTRSNISWMVCDMVEKPAKVAALMAQWLVNGWCRETIFNLKLPMKKRYEEVSHNLAYIQAQLDEHGINAQIQARQLYHDREEVTVHVRRIWAAVGGRRDER	not soluble

---

# assay-overview: soluble on expression in E. coli; label from the status in PepcDB or PDB records
recorded-metric: soluble on expression in E. coli

sequence-entry	result
MADIVVDGIRATYNIRGESAALLCPPHPLMGGSRFDVRLERIAAELTKRNVSVLRFDYQRPFRSGIGEVEDAKKCVAYLKDRHDKIAVIRYSFGSVVASNVAEYCDAAVYISPLPEINSIYFKDAEIPKLFIIATRDQFVSLEESVKLYEQASKPKEVVKVETDHFYFGKFDFIAKITADFIERQSF	soluble
MNFDEIDKTFGTKNRDQGYDLLKARLDKGDRSVEVLWRLAQVIHEKSACVPKAQRKASVTEGLKFAEEAVQKDPNHFKALKWNAVLTGQATEYMATKEKLECSKKFKELLDKTLAKEPKDTAVLHLRGRYKYSVASLTWLEKKLAATFYQQPPSHSYEEANEDFLAAYKVNPKWMENTFYVSKCYVAIKDKANARKYLTEVCDIEPYSDAEQEFADDAKQMLSKL	soluble
MRLKDKAVLITGAAHGIGRATLELFAKEGARLVACDIEEGPLREAAEAVGAHPVVMDVADPASVERGFAEALAHLGRLDGVVHYAGITRDNFHWKMPLEDWELVLRVNLTGSFLVAKAASEAMREKNPGSIVLTASRVYLGNLGQANYAASMAGVVGLTRTLALELGRWGIRVNTLAPGFIETRMTAKVPEKVREKAIAATPLGRAGKPLEVAYAALFLLSDESSFITGQVLFVDGGRTIGAAPA	soluble
SLVLMSETKNELEDLLEKAATEPAHRPAFFRTLLESTVWVPGTAAQGEAVVEDSALDLQHWEKEDGTSVIPFFTSLEALQQVVEDEQAFVVMPVRTLFEMTLGETLFLNAKLPTGKEFMPREISLLIGEEGNSLSSQEVLEGGESLILSEVAEPPVQMIDSLTTLFKTIKPVKRAFICLIKESEEAQPNLLIGIEADGDIEEIIQAAGSVATDTLPGDEPIDICQVKKGEKGISHFITEHIAPFYERRWGGFLRDFKQNRII	soluble
MYDCAAPSLSTGRNTMNHTAELEKALTDLRHITGISMEIHAETEEEVTKALEQLKLLSSAYKEKYNKIHFLQSLMTDSIPTYNVYDRAARLHIAPEEPRILYLLETSHSLDEDISEILKNLFPSQSGAFRIPLTEASCAILCPVRSLADSSQETVHLTARMIVDTVNAEALARVRVSYSKTLHNLLDLSTAFRETSLALKVGKLFYSEQTVFPYNRLGIGRLIYRLPTSLCENFLHEIFGEEIPQALDEETTATVNKFLQNNLNIAETSRQLHMHRNTLIYRLEQIEKRTGLDLRQFEDAMTFKIASMVMNYLYTERNIPHE	not soluble
MMTKTQINKLIKMMNDLDYPFEAPLKESFIESIIQIEFNSNSTNCLEKLCNEVSILFKNQPDYLTFLRAMDGFEVNGLRLFSLSIPEPSVKNLFAVNEFYRNNDDFINPDLQERLVIGDYSISIFTYDIKGDAANLLILEHHHHHH	not soluble
MSLTFKLRETIKINHKKVQRIMQWLGLKGKCKTQKYRSYQGEVGHIADNLLQRDFTATQPNEKWTTDITEFKCAEGKLYLSPIKDLFNNEIIAYDLARSPNFEQITRMMKQAVARLEGAKPILHSDQGWQYQMIGYQNILRENGIQQSMSRKGNCLYNSAMESFFGRLKTECYYGKRFETFEQLEKTIHEYIHYYNHERIQGKLKGLSPVNYRTQSLNEGHHHHHH	not soluble

---

# assay-overview: soluble on expression in E. coli; label from the status in PepcDB or PDB records
recorded-metric: soluble on expression in E. coli

sequence-entry	recorded-metric	result
LLHGDFELAVPGGPVAAYYAAPAGREQLPIVLVVQEIFGLHEHIKDVCRRLAHDGYLAVSVNLYQRQGDASRYDNIPGLVAELVSKVPDEQVHADLDASLAWAAAHGGDGARVGVTGFCWGGRTTWMYAARNPAVKAGVAWYGRLSSGHGPLIKQVPLDVAGSLHAPVLGLYGGKDESIPLDDVRAMEARLQQGGAPAQASRIVVYPQAGHAFLADYRPSYRAADAQDGWRRMLDWFALYL	soluble on expression in E. coli	not soluble
MSLGNYAKPIGTAPVTANPTDYSSALVCLNQYARTNRIVAPRIAIGRIADYTGKEESDGSGRKVTQGASLMAVSAFAKAGMPLVERFDTSVSEFELKYANNKLISDRPNPAPDAPADFRKILAGQVPGSDFYVIGGITELNYNIRSAGIDAYAGDKDTDGLKGNFRRRVFIMNIALDLRLVNTRTLEVVDVISYQKQVVGREVSAGVFDFLNGNLFDISAGRGALEPMQLAVRALIERATVEMAANLYGMPGPESCLRFDPFGDATVGQTGAFTPAYNNLGTNNAQTRDDPSRWNARRDPDIRDAKRGRYEGHHHHHH	soluble on expression in E. coli	not soluble

---

# assay-overview: soluble on expression in E. coli; label from the status in PepcDB or PDB records

sequence-entry	soluble on expression in E. coli
MGSDKIHHHHHHMNDPLDPLPSLNALRAFEAASRHLNFRLAAGELGVTQGAVAQHVRGLESSIGLVLFERRPRALVLTENGRSYAASVRRAFDLLVEATQALRPQPLQLTISVTPTFAAKWLIPRLQDFTAAHPEIDLRIIATDRLSHFQTDAIDLAVRYGQPPFGVGLNAECLFESVLVAVGSPRLANELRSSGAARFFARYPLLHDAHNQWPPFLQEVLKQSAAIGEKNIRFNQTSLAIDAAMAGQGIALAPFAFVGRAIAMGGLSRIFDVELRTGSGFYVVTPRRLRHPGPVAAVRGWLLKQGREQMCD	not soluble
MSGRYNMNIILGATGQVGSMLVDNLLGKGQPVRAVVRDGLKAQGLKNKGVEVKIADYLDVEALKKAFQGGSSVFLLTPENPESENFINEIQRIMSNYREAVLSSGISKIVGLSSMGAQHKSGTGNLMASYMLEHAFSDLEIEQVFVRPAYYFSNWLGYLELVREYGILPTFFPPELELPMIAPPDVAGFLSDVMTCKTQQERIYEISGPHDYSSSDIAKIFGDVLNKNVTLQQVLPEEWENTLIQAGFSKDGTRNLMLMTKAVIDGKTKNETTNRLRFSTNFKNYLQSVILNMS	not soluble

Source listed as the DeepSol protein solubility set.
